Please respond with reported glycan array binding signal (z-score) for every item in the list.
Target: Neu5Gc(a2-6)Gal(b1-4)GlcNAc
Assay: glycan array binding signal (z-score within array); higher = stronger binding
Details: glycan notation: IUPAC condensed, linker removed
The full list was thinned out, with the strongest signals kept by preference.
Numbers only.

Some binders with recorded glycan array binding signal (z-score):
EULS2 M1 (Oryza sativa) (protein) MVYCRANPNYAMTARNGAVVLAPANPKDEYQHWIKDMRWSTSIKDEEGYPAFALVNKATGQAIKHSLGQSHPVRLVPYNPEVMDESVLWTESRDVGNGFRCIRMVNNIYLNFDAFHGDKYHGGVRDGTDIVLWKLCEGDNQRWKIQPYYILEQKLISEEDLNSAVDHHHHHH	0.007
FBG5 (Homo sapiens), Q8NI29 (protein) MGASVSRGRAARVPAPEPEPEEALDLSQLPPELLLVVLSHVPPRTLLGRCRQVCRGWRALVDGQALWLLILARDHGATGRALLHLARSCQSPARNARPCPLGRFCARRPIGRNLIRNPCGQEGLRKWMVQHGGDGWVVEENRTTVPGAPSQTCFVTSFSWCCKKQVLDLEEEGLWPELLDSGRIEICVSDWWGARHDSGCMYRLLVQLLDANQTVLDKFSAVPDPIPQWNNNACLHVTHVFSNIKMGVRFVSFEHRGQDTQFWAGHYGARVTNSSVIVRVRLS	-0.248
Codakine (Codakia orbicularis), Q3KVL7_9BIVA (protein) MKILVAVFLVLVVVGTAAAGCPDGWTQFLDLCYIYQSAKASWASAQSSCQALGGILAEPDTACENEVLIHMCRENGDAGSFGPWLGGQKVGGAWQWSSSGAAFDYLRWGPNEPNNSGGNEDCLHYNWLSWNDLRCHYQASYLCQRAAE	-0.289
SLLPI (Homo sapiens), Q8IXA5 (protein) MVSALRGAPLIRVHSSPVSSPSVSGPRRLVSCLSSQSSALSQSGGGSTSAAGIEARSRALRRRWCPAGIMLLALVCLLSCLLPSSEAKLYGRCELARVLHDFGLDGYRGYSLADWVCLAYFTSGFNAAALDYEADGSTNNGIFQINSRRWCSNLTPNVPNVCRMYCSDLLNPNLKDTVICAMKITQEPQGLGYWEAWRHHCQGKDLTEWVDGCDF	-0.251

Hi, could you look up glycan array binding signal (z-score) for each item in my list?
1. rCnSL-proA (Clitocybe nebularis) (protein) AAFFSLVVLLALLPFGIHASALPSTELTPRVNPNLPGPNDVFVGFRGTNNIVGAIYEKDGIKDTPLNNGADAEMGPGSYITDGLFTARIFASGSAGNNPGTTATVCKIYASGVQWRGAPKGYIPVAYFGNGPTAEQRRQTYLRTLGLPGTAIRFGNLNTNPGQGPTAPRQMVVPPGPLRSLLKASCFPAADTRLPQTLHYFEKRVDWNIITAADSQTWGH
2. RegIIIbeta (Mus musculus), P35230 (protein) MLPPTACSVMSWMLLSCLMLLSQVQGEDSLKNIPSARISCPKGSQAYGSYCYALFQIPQTWFDAELACQKRPGGHLVSVLNSAEASFLSSMVKRTGNSYQYTWIGLHDPTLGAEPNGGGWEWSNNDVMNYFNWERNPSTALDRAFCGSLSRASGFLKWRDMTCEVKLPYVCKFTG

Return:
1: -0.088; 2: -0.122
